Each entry below carries its measured IC50, system: SF1-LBD (Homo sapiens).
Sequence (Q13285 222-459 limits assumed): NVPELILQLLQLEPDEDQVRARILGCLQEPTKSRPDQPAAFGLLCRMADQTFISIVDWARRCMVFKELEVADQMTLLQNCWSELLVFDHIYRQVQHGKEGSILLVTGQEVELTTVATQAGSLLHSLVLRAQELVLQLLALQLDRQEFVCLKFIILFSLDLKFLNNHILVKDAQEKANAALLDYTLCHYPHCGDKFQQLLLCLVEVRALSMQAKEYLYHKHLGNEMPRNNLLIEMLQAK
attribute.measured: IC50 (nM)

>>> value_measured("COc1ccc(C2(CCN(Cc3ccc(C(=O)c4ccc(CCC(=O)O)cc4)c(C)c3)C(=O)C(C)(C)C(F)(F)F)CCOC(C)(C)C2)cc1 (stereo not drawn) [Example Q4]")
35
>>> value_measured("COc1ccc([C@]2(CCN(Cc3ccc(O[C@H]4CC[C@H](C(=O)O)CC4)cc3)CC(C)(C)C(F)(F)F)CCOC(C)(C)C2)cc1 [Example M5]")
18
>>> value_measured("CNc1ccc(C2(CCN(Cc3ccc(O[C@H]4CC[C@H](C(=O)O)CC4)cc3)C(=O)C(C)(C)C)CCOC(C)(C)C2)cc1 (stereo partly drawn) [Example L2]")
32

====

# test.target: SF-1 (Homo sapiens)
# Construct: NCI-H295R SF-1-HiBiT cells with HiBiT tag knocked in at the endogenous SF1 locus; host or cells: NCI-H295R SF-1-HiBiT (knock-in at endogenous locus)
# test: SF1 degradation induction in NCI-H295R SF-1-HiBiT cells (HiBiT DC50)
# Type: cell-based
# condition.context: 24 hr, concentration that induces 50% degradation of SF-1
# Criterion met = DC50 below 5 nM (exclusive); Criterion not met = DC50 at/above 5 nM

>>> class_label("COc1ccc([C@]2(CCN(Cc3ccc(C4=CC[C@H](C(=O)N5CCC(Nc6ccc7c(c6)CN(C6CCC(=O)NC6=O)C7=O)CC5)CC4)cc3)CC(C)(C)C(F)(F)F)CCOC(C)(C)C2)cc1 (stereo partly shown)")
"Criterion not met"
>>> class_label("COc1ccc([C@]2(CCN(Cc3ccc(OC4CC5(CCN(CC(=O)Nc6ccc7c(c6)C(=O)N(C6CCC(=O)NC6=O)C7=O)CC5)C4)cc3)CC(C)(C)C(F)(F)F)CCOC(C)(C)C2)cc1 (stereo partly shown)")
"Criterion not met"
>>> class_label("COc1ccc([C@]2(CCN(CC(C)(C)C(F)(F)F)C[C@H]3CC[C@H](c4ccc(NC(=O)C5CC(Nc6ccc7c(c6)n(C)c(=O)n7C6CCC(=O)NC6=O)C5)cc4)CC3)CCOC(C)(C)C2)cc1 (stereo partly shown)")
"Criterion met"
>>> class_label("COc1ccc([C@]2(CCN(Cc3ccc(C4=CC[C@H](CN5CCN(C(=O)c6ccc7c8c6O[C@@H]6COC[C@@H]6n8c(=O)n7C6CCC(=O)NC6=O)CC5)CC4)cc3)CC(C)(C)C(F)(F)F)CCOC(C)(C)C2)cc1 (relative stereo)")
"Criterion not met"
>>> class_label("COc1ccc([C@]2(CCN(Cc3ccc(C4=CC[C@H](C(=O)N5CCC(Nc6ccc7c8c6CCCn8c(=O)n7C6CCC(=O)NC6=O)CC5)CC4)c(F)c3)CC(C)(C)C(F)(F)F)CCOC(C)(C)C2)cc1 (stereo partly shown) [BK9]")
"Criterion met"
>>> class_label("COc1ccc([C@]2(CCN(Cc3ccc(C4=CCC(C(=O)N5CCC(N(C)c6ccc7c8c6CCCn8c(=O)n7C6CCC(=O)NC6=O)CC5)CC4)c(F)c3)CC(C)(C)C(F)(F)F)CCOC(C)(C)C2)cc1 (stereo partly shown)")
"Criterion not met"
>>> class_label("COc1ccc([C@]2(CCN(Cc3ccc(C4=CC[C@H](CN5CCN(C(=O)c6ccc7c8c6NCCn8c(=O)n7[C@H]6CCC(=O)NC6=O)CC5)CC4)cc3)CC(C)(C)C(F)(F)F)CCOC(C)(C)C2)cc1")
"Criterion met"
>>> class_label("COc1ccc([C@]2(CCN(Cc3ccc(OC4CC5(CCN(CC(=O)Nc6ccc7c(c6)n(C)c(=O)n7C6CCC(=O)NC6=O)CC5)C4)cc3)CC(C)(C)C(F)(F)F)CCOC(C)(C)C2)cc1 (stereo partly shown)")
"Criterion not met"
>>> class_label("COc1ccc([C@]2(CCN(Cc3ccc(OC4CC5(CCN(CC(=O)N6Cc7ccc8c(c7C6)n(C)c(=O)n8C6CCC(=O)NC6=O)CC5)C4)cc3)CC(C)(C)C(F)(F)F)CCOC(C)(C)C2)cc1 (stereo partly shown)")
"Criterion met"
